Hey, just so you know, these numbers are from patent US11623923B2.

Reported pIC50 values for a set of molecules
# Tested on: MKN45 gastric cancer cell line
# Test details: Assay of inhibitory effect on cell proliferation (CellTiter-Glo)
# Assay type: cell-based
# Condition notes: Homo sapiens, MKN-45, 72 h, read-out: MKN45 cell IC50
pIC50: −log10 of the molar value.

{"Compound smiles": "O=C(Nc1ccc(Oc2ccnc(NC(=O)N3CCOCC3)c2)c(F)c1)c1cn(CC2CC2)c(=O)n(-c2ccc(F)cc2)c1=O", "System name": "MKN45 gastric cancer cell line", "pIC50": 7.42}
{"Compound smiles": "C=CCn1cc(C(=O)Nc2ccc(Oc3ccnc(N)c3Cl)c(F)c2)c(=O)n(-c2ccc(F)cc2)c1=O", "System name": "MKN45 gastric cancer cell line", "pIC50": 7.11}
{"Compound smiles": "O=C(Nc1ccc(Oc2ccnc(NC(=O)N3CCC3)c2)c(F)c1)c1cn(CC2CC2)c(=O)n(-c2ccc(F)cc2)c1=O", "System name": "MKN45 gastric cancer cell line", "pIC50": 7.92}
{"Compound smiles": "N#Cc1c(Oc2ccc(NC(=O)c3cn(CC4CC4)c(=O)n(-c4ccc(F)cc4)c3=O)cc2F)ccnc1N", "System name": "MKN45 gastric cancer cell line", "pIC50": 7.52}
{"Compound smiles": "Nc1nccc(Oc2ccc(NC(=O)c3cn(CC4CC4)c(=O)n(-c4ccc(F)cc4)c3=O)cc2F)c1Cl", "System name": "MKN45 gastric cancer cell line", "pIC50": 7.96}
{"Compound smiles": "Cc1[nH]c(=O)n(-c2ccc(F)cc2)c(=O)c1C(=O)Nc1ccc(Oc2ccnc(N)c2Cl)c(F)c1", "System name": "MKN45 gastric cancer cell line", "pIC50": 6.62}
{"Compound smiles": "CC(C)n1cc(C(=O)Nc2ccc(Oc3ccnc(N)c3Cl)c(F)c2)c(=O)n(-c2ccc(F)cc2)c1=O", "System name": "MKN45 gastric cancer cell line", "pIC50": 7.27}
{"Compound smiles": "O=C(Nc1ccc(Oc2ccnc(NC(=O)N3CCCC3)c2)c(F)c1)c1cn(CC2CC2)c(=O)n(-c2ccc(F)cc2)c1=O", "System name": "MKN45 gastric cancer cell line", "pIC50": 7.54}
{"Compound smiles": "Nc1nccc(Oc2ccc(NC(=O)c3cn(CC(F)F)c(=O)n(-c4ccc(F)cc4)c3=O)cc2F)c1Cl", "System name": "MKN45 gastric cancer cell line", "pIC50": 6.44}
{"Compound smiles": "NC(=O)Nc1cc(Oc2ccc(NC(=O)c3cn(CC4CC4)c(=O)n(-c4ccc(F)cc4)c3=O)cc2F)ccn1", "System name": "MKN45 gastric cancer cell line", "pIC50": 7.29}

----------
# System: Hs746t gastric cancer cells
# Test details: Drug efficacy in a model with subcutaneous xenograft tumor of Hs746t gastric cancer cells
# Format: in vivo, BALB/c nude mice
# Condition notes: 4.5 mpk, Day 20
# Protocol: Assay Example 4: Assay of Drug Efficacy in a Model with Subcutaneous Xenograft Tumor of Hs746t Gastric Cancer Cells Human gastric cancer Hs746t cells were cultured in vitro in monolayer. […] When the cell saturation was 80%-90%, and the number met the requirements, the cells were collected, counted, and inoculated. […] Assay index: The assay index is to investigate whether tumor growth is inhibited, delayed or cured. Tumor diameter was measured twice a week with a vernier caliper. […]

{"Compound": "CN(C)C(=O)Nc1cc(Oc2ccc(NC(=O)c3cn(CC4CC4)c(=O)n(-c4ccc(F)cc4)c3=O)cc2F)ccn1", "System name": "Hs746t gastric cancer cells", "T/C (Day 20)": "0.15%"}
{"Compound": "Cc1ccc(C(=O)Nc2ccc(Oc3cc4cnn(C)c4cc3-c3cn[nH]c3)c(F)c2)c(=O)n1-c1ccc(F)cc1 [LY2801653, reference compound]", "System name": "Hs746t gastric cancer cells", "T/C (Day 20)": "3.45%"}
{"Compound": "CCOc1ccn(-c2ccc(F)cc2)c(=O)c1C(=O)Nc1ccc(Oc2ccnc(N)c2Cl)c(F)c1 [BMS777607, reference compound]", "System name": "Hs746t gastric cancer cells", "T/C (Day 20)": "73.58%"}
{"Compound": "Nc1nccc(Oc2ccc(NC(=O)c3cn(CC4CC4)c(=O)n(-c4ccc(F)cc4)c3=O)cc2F)c1Cl", "System name": "Hs746t gastric cancer cells", "T/C (Day 20)": "0.78%"}
